target: UniProt Q54A96
pKi: −log10 of the molar value.
Answer no (0) if pKi is under 6, and yes (1) if it is 6 or more.

given.smiles | class.name
C/C(O)=C(\C#N)C(=O)Nc1ccc(-c2ccccc2Cl)cc1Cl | yes (1)

# check: pKi of `C/C(O)=C(\C#N)C(=O)Nc1ccc(-c2ccccc2)cc1` is greater than or equal to 6
no (0)

Next record, please: `C/C(O)=C(\C#N)C(=O)Nc1ccc(-c2cccc(Cl)c2)cc1Cl`
no (0)

Also `N#C/C(C(=O)Nc1ccc(C(F)(F)F)cc1)=C(/O)C1CC1` ?
no (0)

----------
biological target: Dihydroorotate dehydrogenase (quinone), mitochondrial (Homo sapiens, UniProt Q02127)
Sequence (Q02127 whole entry): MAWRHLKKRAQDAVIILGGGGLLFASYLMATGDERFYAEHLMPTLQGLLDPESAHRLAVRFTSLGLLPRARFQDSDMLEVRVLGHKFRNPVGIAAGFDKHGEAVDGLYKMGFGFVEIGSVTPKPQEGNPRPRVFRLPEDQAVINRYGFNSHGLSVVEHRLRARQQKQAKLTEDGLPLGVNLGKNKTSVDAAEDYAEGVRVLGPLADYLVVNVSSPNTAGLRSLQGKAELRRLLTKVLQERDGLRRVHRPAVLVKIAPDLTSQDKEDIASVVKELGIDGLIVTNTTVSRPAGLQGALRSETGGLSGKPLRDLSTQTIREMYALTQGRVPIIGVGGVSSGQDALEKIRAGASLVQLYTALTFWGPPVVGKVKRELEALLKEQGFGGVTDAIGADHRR
pIC50: −log10 of the molar value.
Classify as follows. Reported pIC50 greater than or equal to 7: yes (1). Reported pIC50 below: no (0).

Answered cases to consult:
given.smiles | class.name
N#C/C(C(=O)Nc1ccc(-c2ccccc2)cc1)=C(/O)C1CC1 | yes (1)
C/C(O)=C(\C#N)C(=O)Nc1ccc(-c2cccc(Cl)c2Cl)cc1 | no (0)
C/C(O)=C(\C#N)C(=O)Nc1ccc(-c2ccccc2Cl)cc1Cl | no (0)
C/C(O)=C(\C#N)C(=O)Nc1ccc(-c2cccc(Cl)c2)cc1Cl | no (0)
C/C(O)=C(\C#N)C(=O)Nc1ccc(-c2ccccc2Cl)c(Cl)c1 | yes (1)

Exam item: decide whether the reported pIC50 for `C/C(O)=C(\C#N)C(=O)Nc1ccc(-c2cccc(Cl)c2)c(Cl)c1` is at least 7.
no (0)

Repeat with `C/C(O)=C(\C#N)C(=O)Nc1ccc(-c2cccc(Cl)c2Cl)cc1Cl`
no (0)

Continue with `C/C(O)=C(\C#N)C(=O)Nc1ccc(-c2cccc(Cl)c2)cc1C(F)(F)F`
no (0)

----------
Target: Dihydroorotate dehydrogenase (Plasmodium falciparum, UniProt Q54A96)
Sequence (Q54A96 whole entry): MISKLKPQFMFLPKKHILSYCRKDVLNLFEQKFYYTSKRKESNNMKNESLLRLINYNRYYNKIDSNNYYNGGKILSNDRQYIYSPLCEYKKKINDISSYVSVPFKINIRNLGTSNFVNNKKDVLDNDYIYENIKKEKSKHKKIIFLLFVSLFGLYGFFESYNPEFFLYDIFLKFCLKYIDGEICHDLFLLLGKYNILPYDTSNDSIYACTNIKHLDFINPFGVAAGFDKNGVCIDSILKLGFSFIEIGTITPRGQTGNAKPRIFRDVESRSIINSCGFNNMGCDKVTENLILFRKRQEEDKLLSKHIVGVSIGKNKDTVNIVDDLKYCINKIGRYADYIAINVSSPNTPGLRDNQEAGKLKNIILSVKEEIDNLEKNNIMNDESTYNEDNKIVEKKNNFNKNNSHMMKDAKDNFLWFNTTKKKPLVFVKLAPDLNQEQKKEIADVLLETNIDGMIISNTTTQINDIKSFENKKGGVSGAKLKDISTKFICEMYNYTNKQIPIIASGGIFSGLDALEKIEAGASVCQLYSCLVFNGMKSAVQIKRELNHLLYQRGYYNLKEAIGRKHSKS
pIC50: −log10 of the molar value.
Binary classification by pIC50, with 5 as an inclusive lower bound for class 1; all other cases are class 0.

Some solved cases for reference:
given.smiles | class.name
C/C(O)=C(\C#N)C(=O)Nc1ccc(-c2ccccc2Cl)cc1C(F)(F)F | class 1
C/C(O)=C(\C#N)C(=O)Nc1ccc(-c2ccccc2)cc1Cl | class 0
C/C(O)=C(\C#N)C(=O)Nc1ccc(-c2ccccc2Cl)c(Cl)c1 | class 0
C/C(O)=C(\C#N)C(=O)Nc1ccc(-c2cccc(Cl)c2)c(Cl)c1 | class 0

Hello, I need to know if `C/C(O)=C(\C#N)C(=O)Nc1ccc(-c2ccccc2)cc1` has measured pIC50 not below 5. Thanks!
class 0
